Tested on: Alopecurus myosuroides
Protocol description: Pre-emergence herbicidal effect against ALOMY
Type: in vivo
Condition details: 1280 g/ha, visual score after 3 weeks, 100% = plants have died, 0% = like control plants

[
  {
    "Compound": "CCOC(=O)CSc1nn(-c2cc(F)ccc2F)c(-c2ccc(F)c(F)c2)c1Br",
    "Pre-emergence action against ALOMY / %": 100
  },
  {
    "Compound": "COC(=O)CCNC(=O)CSc1nn(-c2ccccc2F)c(-c2cccnc2)c1Br",
    "Pre-emergence action against ALOMY / %": 90
  },
  {
    "Compound": "O=C(O)CSc1nn(-c2ccccc2F)c(-c2cncc(Cl)c2)c1Br",
    "Pre-emergence action against ALOMY / %": 100
  },
  {
    "Compound": "O=C(O)CSc1nn(-c2ccccc2F)c(-c2cncc(F)c2)c1Br",
    "Pre-emergence action against ALOMY / %": 100
  },
  {
    "Compound": "CCOC(=O)C[S+]([O-])c1nn(-c2cccc(F)c2F)c(-c2ccccc2)c1Br (stereo not drawn)",
    "Pre-emergence action against ALOMY / %": 100
  },
  {
    "Compound": "O=C(O)CSc1nn(-c2ccccc2F)c(-c2cc(F)cc(Cl)c2)c1Br",
    "Pre-emergence action against ALOMY / %": 90
  },
  {
    "Compound": "CCOC(=O)CSc1nn(-c2ccccc2F)c(-c2ccc(F)c(F)c2)c1Cl",
    "Pre-emergence action against ALOMY / %": 100
  },
  {
    "Compound": "O=C(O)CSc1nn(-c2ccccc2F)c(-c2ccc(F)c(F)c2)c1Br",
    "Pre-emergence action against ALOMY / %": 90
  },
  {
    "Compound": "CC(Sc1nn(-c2ccccc2F)c(-c2ccc(F)c(F)c2)c1Br)C(=O)O (stereo not drawn)",
    "Pre-emergence action against ALOMY / %": 90
  },
  {
    "Compound": "CCOC(=O)C(C)Sc1nn(-c2ccccc2F)c(-c2ccc(F)c(F)c2)c1Br (stereo not drawn)",
    "Pre-emergence action against ALOMY / %": 100
  },
  {
    "Compound": "CCOC(=O)C[S+]([O-])c1nn(-c2ccccc2F)c(-c2cncc(Cl)c2)c1Br (stereo not drawn)",
    "Pre-emergence action against ALOMY / %": 100
  },
  {
    "Compound": "COC(=O)CNC(=O)CSc1nn(-c2ccccc2F)c(-c2ccccc2)c1Br",
    "Pre-emergence action against ALOMY / %": 90
  },
  {
    "Compound": "COC(=O)CNC(=O)CSc1nn(-c2ccccc2F)c(-c2cncc(F)c2)c1Br",
    "Pre-emergence action against ALOMY / %": 90
  },
  {
    "Compound": "CCOC(=O)CSc1nn(-c2ccc(F)cc2F)c(-c2ccc(F)cc2)c1Br",
    "Pre-emergence action against ALOMY / %": 90
  },
  {
    "Compound": "COC(=O)CNC(=O)CSc1nn(-c2ccccc2F)c(-c2cccnc2)c1Br",
    "Pre-emergence action against ALOMY / %": 90
  },
  {
    "Compound": "O=C(O)CSc1nn(-c2ccccc2F)c(-c2ccc(F)c(F)c2)c1Cl",
    "Pre-emergence action against ALOMY / %": 100
  },
  {
    "Compound": "CCOC(=O)CSc1nn(-c2ccccc2OC)c(-c2ccc(F)cc2)c1Br",
    "Pre-emergence action against ALOMY / %": 90
  },
  {
    "Compound": "COC(=O)CCNC(=O)CSc1nn(-c2ccccc2F)c(-c2cncc(F)c2)c1Br",
    "Pre-emergence action against ALOMY / %": 90
  },
  {
    "Compound": "CCOC(=O)CSc1nn(-c2ccccc2F)c(-c2ccc(F)c(F)c2)c1Br",
    "Pre-emergence action against ALOMY / %": 90
  },
  {
    "Compound": "O=C(O)CSc1nn(-c2cccc(F)c2F)c(-c2ccccc2)c1Br",
    "Pre-emergence action against ALOMY / %": 90
  },
  {
    "Compound": "COC(=O)CNC(=O)CSc1nn(-c2ccccc2F)c(-c2ccc(F)c(F)c2)c1Cl",
    "Pre-emergence action against ALOMY / %": 90
  },
  {
    "Compound": "CCOC(=O)CSc1nn(-c2ccc(F)cc2)c(-c2ccc(F)cc2)c1Br",
    "Pre-emergence action against ALOMY / %": 90
  },
  {
    "Compound": "CCOC(=O)C[S+]([O-])c1nn(-c2ccccc2F)c(-c2cncc(F)c2)c1Br (stereo not drawn)",
    "Pre-emergence action against ALOMY / %": 100
  },
  {
    "Compound": "O=C(O)CSc1nn(-c2ccccc2F)c(-c2ccc(Cl)nc2)c1Br",
    "Pre-emergence action against ALOMY / %": 90
  },
  {
    "Compound": "CCOC(=O)CSc1nn(-c2ccccc2F)c(-c2cncc(Cl)c2)c1Br",
    "Pre-emergence action against ALOMY / %": 100
  },
  {
    "Compound": "O=C(O)CSc1nn(-c2ccccc2F)c(-c2cccnc2)c1Br",
    "Pre-emergence action against ALOMY / %": 90
  },
  {
    "Compound": "CCOC(=O)CSc1nn(-c2ccccc2F)c(-c2ccc(F)c(F)c2)c1C(F)(F)F",
    "Pre-emergence action against ALOMY / %": 90
  },
  {
    "Compound": "CCOC(=O)CSc1nn(-c2ccccc2F)c(-c2ccc(F)nc2)c1Br",
    "Pre-emergence action against ALOMY / %": 100
  },
  {
    "Compound": "O=C(O)CSc1nn(-c2ccccc2F)c(-c2ccc(F)c(F)c2)c1[N+](=O)[O-]",
    "Pre-emergence action against ALOMY / %": 90
  },
  {
    "Compound": "CCOC(=O)CSc1nn(-c2ccccc2F)c(-c2ccc(Cl)nc2)c1Br",
    "Pre-emergence action against ALOMY / %": 90
  },
  {
    "Compound": "CCOC(=O)CSc1nn(-c2cccc(F)c2F)c(-c2ccccc2)c1Br",
    "Pre-emergence action against ALOMY / %": 90
  },
  {
    "Compound": "CCOC(=O)CSc1nn(-c2cc(F)ccc2F)c(-c2ccc(F)cc2)c1Br",
    "Pre-emergence action against ALOMY / %": 90
  },
  {
    "Compound": "COC(=O)CN(C)C(=O)CSc1nn(-c2ccccc2F)c(-c2ccc(F)c(F)c2)c1Br",
    "Pre-emergence action against ALOMY / %": 90
  }
]
